The origin of these recorded values is patent US8158621B2.

test system: cultured human mast cells (CHMC); experiment: CHMC low cell density IgE activation: tryptase assay; assay type: cell-based; conditions: low cell density; read-out: CHMC anti-IgE Tryptase
pIC50: −log10 of the molar value.
Given measured pIC50, output Criterion met if it is greater than or equal to 7 and Criterion not met if not.

Past entries and their recorded results:
[[record]]
compound = "CC(C)Oc1ccc(Nc2ncc(F)c(Nc3ccc4c(n3)NC(=O)CO4)n2)cc1"
label_value = "Criterion not met"

[[record]]
compound = "COc1ccc(Nc2nc(Nc3ccc4cnn(C)c4c3)ncc2F)cc1Cl"
label_value = "Criterion not met"

[[record]]
compound = "COc1c(C)cc(Nc2ncc(F)c(Nc3ccc4c(c3)-n3ccnc3CO4)n2)cc1Cl"
label_value = "Criterion not met"

[[record]]
compound = "CN(CCO)C(=O)C1Cc2cc(Nc3ncc(F)c(Nc4ccc(OC(F)(F)F)c(Cl)c4)n3)ccc2O1 (racemic)"
label_value = "Criterion not met"

[[record]]
compound = "CNC(=O)COc1cccc(Nc2ncc(F)c(Nc3ccc4c(c3)NC(=O)[C@H](C)O4)n2)c1"
label_value = "Criterion met"


Now turn to the next compound.
Given COc1cc(Nc2nc(Nc3ccc(CN)cc3)ncc2F)cc(OC)c1 , state whether its pIC50 is at least 7.
Criterion not met

###

target: Syk kinase (Homo sapiens, UniProt P43405); assay: Syk kinase biochemical fluorescence polarization assay; details: isolated Syk kinase, fluorescence polarization, 4 uM ATP
Assay Readout: log10 of IC50 (log10 of the value in nM)
log10 IC50, nM

A selection of reference data follows.
[[record]]
sample_smiles = "CNC(=O)COc1cccc(Nc2ncc(F)c(Nc3ccc4c(c3)NC(C)(C)CO4)n2)c1"
system_under_test = "Syk kinase (Homo sapiens, UniProt P43405)"
assay_result = 1.95

[[record]]
sample_smiles = "COc1cc(Nc2ncc(F)c(Nc3ccc4c(c3)NC(=O)C(F)(F)O4)n2)cc(C(F)(F)F)c1"
system_under_test = "Syk kinase (Homo sapiens, UniProt P43405)"
assay_result = 2.66

[[record]]
sample_smiles = "CNC(=O)COc1cccc(Nc2ncc(F)c(Nc3ccc4c(n3)NCCO4)n2)c1"
system_under_test = "Syk kinase (Homo sapiens, UniProt P43405)"
assay_result = 1.34

[[record]]
sample_smiles = "O=C(c1cc2cc(Nc3ncc(F)c(Nc4ccc5c(c4)OCCO5)n3)ccc2o1)N1CCNCC1"
system_under_test = "Syk kinase (Homo sapiens, UniProt P43405)"
assay_result = 2.29

[[record]]
sample_smiles = "COc1cc(Nc2ncc(F)c(Nc3ccc(Cl)c(Cl)c3)n2)cc(OC)c1"
system_under_test = "Syk kinase (Homo sapiens, UniProt P43405)"
assay_result = 2.79


Dear colleague, could you please provide log10 of IC50 for the compounds listed below?
1. O=C1COc2ccc(Nc3nc(Nc4cccc(OCC(=O)NC5CC5)c4)ncc3F)nc2N1
2. COc1ccc(Nc2ncc(F)c(Nc3ccc4c(n3)NC(=O)CO4)n2)cc1F
3. COC(=O)c1cc2cc(Nc3ncc(F)c(Nc4ccc5c(c4)NC(=O)C(F)(F)O5)n3)ccc2o1

1: 0.95; 2: 2.62; 3: 2.51

Dear colleague, could you please provide log10 of IC50 for the compounds listed below?
1. CC1(C)Oc2ccc(Nc3nc(Nc4ccc5c(c4)NC(=O)C(F)(F)O5)ncc3F)cc2NC1=O
2. Fc1cnc(Nc2ccc3[nH]ncc3c2)nc1Nc1ccc2[nH]ncc2c1
3. COc1c(Cl)cc(Nc2ncc(F)c(Nc3ccc4c(n3)NC(=O)CO4)n2)cc1Cl
4. CC1(C)Oc2ccc(Nc3nc(Nc4ccc5cn[nH]c5c4)ncc3F)nc2NC1=O

1. 2.40
2. 2.55
3. 4.25
4. 1.46

Return reported log10 of IC50; argument: CNC(=O)COc1cccc(Nc2ncc(F)c(Nc3cccc(N)n3)n2)c1
2.40

###

test system: cultured human mast cells (CHMC); assay: CHMC low cell density IgE activation: tryptase assay; type: cell-based; settings: low cell density; read-out: CHMC anti-IgE Tryptase
Assay Readout: IC50 (nM)
One number for each entry, in nM.

[[record]]
compound = "Cc1cccc(C)c1Nc1ncc(F)c(Nc2cccc(N)n2)n1"
display_unit = "nM"
assay_result = 245

[[record]]
compound = "NC(=O)c1ccc(Nc2ncc(F)c(Nc3ccc4c(c3)NC(=O)C(CCO)O4)n2)cc1 (racemic)"
display_unit = "nM"
assay_result = 8640

[[record]]
compound = "COc1ccc(Nc2nc(Nc3cccc(OCC(=O)NC4CCC4)c3)ncc2F)cc1Cl"
display_unit = "nM"
assay_result = 359

[[record]]
compound = "CCOC(=O)CCn1ncc2ccc(Nc3ncc(F)c(Nc4ccc(Cl)c(Cl)c4)n3)cc21"
display_unit = "nM"
assay_result = 821

[[record]]
compound = "O=C1COc2ccc(Nc3nc(Nc4ccc(N5CCOCC5)cc4)ncc3F)nc2N1"
display_unit = "nM"
assay_result = 95


Return reported IC50; argument: COc1ccc(Nc2nc(Nc3cccc(OCC(=O)NC4CC4)c3)ncc2F)cc1Cl
259

###

biological target: Syk kinase (Homo sapiens); assay: Syk kinase biochemical fluorescence polarization assay; details: isolated Syk kinase, fluorescence polarization, 4 uM ATP
Record form. Attribute: pIC50. Fill in for each entry.
Answers are plain numbers, as −log10 of the molar value.

Dear colleague, could you please provide pIC50 for the compounds listed below?
1. CC1(C)Oc2ccc(Nc3ncc(F)c(Nc4ccc5c(c4)NC(=O)C(C)(C)O5)n3)cc2NC1=O
2. Nc1cccc(Nc2nc(Nc3cccc(O)c3)ncc2F)n1
3. O=C1Nc2cc(Nc3nc(Nc4cc(Cl)c(O)c(Cl)c4)ncc3F)ccc2OC1(F)F
4. COC(=O)N1CCN(c2ccc(Nc3ncc(F)c(Nc4ccc5c(n4)NC(=O)CO5)n3)cc2)CC1

1: 6.92; 2: 6.35; 3: 8.70; 4: 7.85

###

assay: Mouse Reverse Passive Arthus reaction (RPA reaction); format: in vivo, C57BL/6 mice; conditions: oral, 50 mg/kg, pretreatment time 1.5 hrs
Record form. Attribute: % inhibition to vehicle control Edema Size ± SEM. Fill in for each entry.
Give bare numbers, in %.

A selection of reference data follows.
[[record]]
sample_smiles = "COc1ccc(Nc2nc(Nc3ccc4cc[nH]c4c3)ncc2F)cc1Cl.Cc1ccc(S(=O)(=O)O)cc1"
display_unit = "%"
assay_result = "−10.4"

[[record]]
sample_smiles = "CC1(C)Oc2ccc(Nc3nc(Nc4ccc5cn[nH]c5c4)ncc3F)cc2NC1=O.O=S(=O)(O)c1ccccc1"
display_unit = "%"
assay_result = "−5.1"


Dear colleague, could you please provide % inhibition to vehicle control Edema Size ± SEM for the compounds listed below?
1. Cc1ccc(S(=O)(=O)O)cc1.Cc1ccc(S(=O)(=O)O)cc1.OCCCn1ncc2cc(Nc3ncc(F)c(Nc4ccc(Cl)c(Cl)c4)n3)ccc21
2. COc1cc(Nc2ncc(F)c(Nc3ccc4c(c3)NC(=O)C(C)(C)O4)n2)cc(OC)c1.Cc1ccc(S(=O)(=O)O)cc1

1: 74.9; 2: 31.1

###

target: Syk kinase (Homo sapiens, UniProt P43405); assay: Syk kinase biochemical fluorescence polarization assay; settings: isolated Syk kinase, fluorescence polarization, 4 uM ATP
Just a reminder that ties go to criterion not met: only IC50 strictly below 0.3 µM counts as criterion met.

[[record]]
sample_smiles = "CC1(C)Oc2ccc(Nc3nc(Nc4cccc(C(C)(C)C)c4)ncc3F)nc2NC1=O"
label_value = "criterion not met"

[[record]]
sample_smiles = "COc1c(C)cc(Nc2ncc(F)c(Nc3ccc4c(c3)-n3ccnc3CO4)n2)cc1Cl"
label_value = "criterion not met"

[[record]]
sample_smiles = "COc1ccc(Nc2ncc(F)c(Nc3ccc4c(n3)NC(=O)CO4)n2)cc1OC"
label_value = "criterion met"

[[record]]
sample_smiles = "Cc1cc(Nc2ncc(F)c(Nc3ccc4c(c3)NC(=O)C(F)(F)O4)n2)cc(Cl)c1O"
label_value = "criterion met"


Lab log: compare recorded IC50 with 0.3 µM; is it strictly lower for CC(=O)N1CCN(c2ccc(Nc3ncc(F)c(NC4CCC4)n3)cc2)CC1 ?
criterion not met

Lab log: compare recorded IC50 with 0.3 µM; is it strictly lower for COc1cc(Nc2ncc(F)c(Nc3ccc4c(c3)NC(=O)C(F)(F)O4)n2)cc(OC)c1 ?
criterion met

Lab log: compare recorded IC50 with 0.3 µM; is it strictly lower for CC1(C)Oc2ccc(Nc3ncc(F)c(Nc4ccc5c(c4)NC(=O)C(F)(F)O5)n3)cc2NC1=O ?
criterion met

###

Record form. Attribute: pIC50. Fill in for each entry.
tested on: cultured human mast cells (CHMC); test: CHMC low cell density IgE activation: tryptase assay; type: cell-based; conditions: low cell density; read-out: CHMC anti-IgE Tryptase
Numbers only, as −log10 of the molar value.

A selection of reference data follows.
[[record]]
compound = "Fc1cnc(Nc2ccc(OC(F)(F)F)c(Cl)c2)nc1Nc1ccc2c(c1)OCCO2"
assay_readout = "pIC50"
assay_result = 5.13

[[record]]
compound = "COc1cc(Nc2ncc(F)c(Nc3ccc4cnn(C)c4c3)n2)cc(OC)c1"
assay_readout = "pIC50"
assay_result = 6.25

[[record]]
compound = "C[C@@H]1Oc2ccc(Nc3nc(Nc4ccc(C(N)=O)cc4)ncc3F)cc2NC1=O"
assay_readout = "pIC50"
assay_result = 7.00


Dear colleague, could you please provide pIC50 for the compounds listed below?
1. CN(C)C(=O)C1Cc2cc(Nc3ncc(F)c(Nc4ccc5c(c4)NC(=O)C(F)(F)O5)n3)ccc2O1 (stereo not shown)
2. CNC(=O)COc1cccc(Nc2ncc(F)c(Nc3ccc4c(c3)[C@H](NC(=O)OCc3ccccc3)CCO4)n2)c1
3. COc1cc(Nc2nc(Nc3ccc(CNC(=O)OC(C)(C)C)cc3)ncc2F)cc(OC)c1
4. COc1cc(Nc2nc(Nc3ccc4cnn(C)c4c3)ncc2F)ccc1F
5. COc1ccc(Nc2nc(Nc3ccc4[nH]ncc4c3)ncc2F)cc1OC

1: 6.71; 2: 5.78; 3: 5.42; 4: 6.43; 5: 6.23

Dear colleague, could you please provide pIC50 for the compounds listed below?
1. CNC(=O)COc1cccc(Nc2ncc(F)c(Nc3ccc(OC(C)C)nc3)n2)c1
2. O=C1COc2ccc(Nc3nc(Nc4ccc(Cl)c(Cl)c4)ncc3F)nc2N1
3. O=C1Nc2cc(Nc3nc(Nc4ccc5cn[nH]c5c4)ncc3F)ccc2OC1(F)F
4. Cc1cccc(C)c1Nc1ncc(F)c(Nc2ccc3c(c2)NC(=O)C(C)(C)O3)n1
5. CNC(=O)COc1cccc(Nc2ncc(F)c(Nc3ccc(N(C)C(C)=O)cc3)n2)c1

1: 6.69; 2: 5.15; 3: 7.34; 4: 7.12; 5: 5.95

Return reported pIC50; argument: CC1(C)Oc2ccc(Nc3nc(Nc4cc(Cl)cc(Cl)c4)ncc3F)nc2NC1=O
5.92
